These measurements were taken from patent US8029764B2.

Test system: colorectal tissue transcripts
Protocol: SAGE of normal, adenoma and cancer colorectal tissue (transcript tag counts)
Parameters: species or system human
Particulars: SAGE library CA1
Parameter: CA1 (SAGE tag count)
Numbers only.

Solved cases (3 shown):
residue_string="CTTGACATAC (chemistry not fully specified)" recorded_number=0
residue_string="GCGCAGAGGT (chemistry not fully specified)" recorded_number=0
residue_string="CAAATAAAAG (chemistry not fully specified)" recorded_number=1

Please turn your attention to the following entry.
In plain terms, GGCACCGTGC (chemistry not fully specified) has a documented CA1 (SAGE tag count) of 8

====

System: colorectal tissue transcripts
Protocol: SAGE of normal, adenoma and cancer colorectal tissue (transcript tag counts)
Set-up: species or system human
Particulars: SAGE library CA2
Parameter: CA2 (SAGE tag count)

Solved cases (3 shown):
residue_string="CTCAGAACTT (chemistry not fully specified)" result=0
residue_string="GAGCACCGTG (chemistry not fully specified)" result=1
residue_string="GTGCCTGAGA (chemistry not fully specified)" result=3

Please turn your attention to the following entry.
In plain terms, GACGCGGCGC (chemistry not fully specified) has a documented CA2 (SAGE tag count) of 17

====

System: colorectal tissue transcripts
Protocol: SAGE of normal, adenoma and cancer colorectal tissue (transcript tag counts)
Parameters: species or system human
Particulars: SAGE library AD2
Parameter: AD2 (SAGE tag count)
Answers are plain numbers.

residue_string="CCTGCTGCAG (chemistry not fully specified)" parameter="AD2 (SAGE tag count)" recorded_number=1
residue_string="CCGCTGCACT (chemistry not fully specified)" parameter="AD2 (SAGE tag count)" recorded_number=46
residue_string="CCTGCCCCCC (chemistry not fully specified)" parameter="AD2 (SAGE tag count)" recorded_number=3
residue_string="AAGAAGCAGG (chemistry not fully specified; the letters are possibly those of the target site)" parameter="AD2 (SAGE tag count)" recorded_number=4
residue_string="GCAAGAAAGT (chemistry not fully specified)" parameter="AD2 (SAGE tag count)" recorded_number=4

// for each sequence in input: emit AD2 (SAGE tag count)
1. AGCCCGACCA (chemistry not fully specified)
2. CACCCCTGAT (chemistry not fully specified)
3. GATCCCAACT (chemistry not fully specified)
4. GCTGCCCTTG (chemistry not fully specified)

(A)
[4, 58, 7, 6]

====

System: colorectal tissue transcripts
Protocol: SAGE of normal, adenoma and cancer colorectal tissue (transcript tag counts)
Parameters: species or system human
Particulars: normal colorectal tissue library 1
Kindly state NC1 (SAGE tag count) for each of the entries shown.
Answers are plain numbers.

Solved cases (4 shown):
residue_string="TAAATTGCAA (chemistry not fully specified)" recorded_number=103
residue_string="TACTGTGGAT (chemistry not fully specified)" recorded_number=4
residue_string="TGGGGAGAGG (chemistry not fully specified)" recorded_number=43
residue_string="TATGATGAGC (chemistry not fully specified)" recorded_number=13

Please turn your attention to the following entry.
In plain terms, TTTTTACTGA (chemistry not fully specified) has a documented NC1 (SAGE tag count) of 32

====

Tested on: colorectal tissue transcripts
Protocol: SAGE of normal, adenoma and cancer colorectal tissue (transcript tag counts)
Design: species or system human
Particulars: cancer library 2
Kindly state CA2 (SAGE tag count) for each of the entries shown.

Solved cases (3 shown):
residue_string="TAAGGCCTTT (chemistry not fully specified; the letters are possibly those of the target site)" result=1
residue_string="TTATGGTGTG (chemistry not fully specified)" result=0
residue_string="TACTGTGGAT (chemistry not fully specified)" result=1

// for each sequence in input: emit CA2 (SAGE tag count)
1. TAGACTAGCA (chemistry not fully specified)
2. TTCCACTAAC (chemistry not fully specified)
3. TAATCCCAGC (chemistry not fully specified)
4. TGGGGAGAGG (chemistry not fully specified)
5. GTGGTTCACG (chemistry not fully specified)
6. TGAGTGACAG (chemistry not fully specified)
7. TATGATGAGC (chemistry not fully specified)

(A)
4
5
13
7
0
7
5

====

System: colorectal tissue transcripts
Protocol: SAGE of normal, adenoma and cancer colorectal tissue (transcript tag counts)
Design: species or system human
Particulars: SAGE library NC2
Kindly state NC2 (SAGE tag count) for each of the entries shown.

Solved cases (10 shown):
residue_string="GCCTGGCCAT (chemistry not fully specified)" result=34
residue_string="ACCTGGGGAG (chemistry not fully specified)" result=11
residue_string="CGAGGGGCCA (chemistry not fully specified)" result=47
residue_string="GCACCTGTCG (chemistry not fully specified)" result=9
residue_string="GCGCAGAGGT (chemistry not fully specified)" result=16
residue_string="GTCCGAGTGC (chemistry not fully specified)" result=3
residue_string="GCCAGACACC (chemistry not fully specified)" result=9
residue_string="GGTGAAGAGG (chemistry not fully specified)" result=32
residue_string="AATAAAGGCT (chemistry not fully specified)" result=11
residue_string="GCCGGGTGGG (chemistry not fully specified)" result=149

// for each sequence in input: emit NC2 (SAGE tag count)
1. CGGTGGGACC (target site or template, no part of the molecule; chemistry not given here)
2. GCCACATACT (chemistry not fully specified)
3. GCAGGAGGTG (chemistry not fully specified; the letters are possibly those of the target site)
4. ATGCGGAGTC (chemistry not fully specified)

(A)
14
9
13
13

====

Kindly state AD2 (SAGE tag count) for each of the entries shown.
Test system: colorectal tissue transcripts
Protocol: SAGE of normal, adenoma and cancer colorectal tissue (transcript tag counts)
Parameters: species or system human
Particulars: SAGE library AD2
Numbers only.

residue_string="GAGCACCGTG (chemistry not fully specified)" recorded_number=0
residue_string="ACCCCCCCGC (chemistry not fully specified)" recorded_number=13
residue_string="GTGGTTCACG (chemistry not fully specified)" recorded_number=0

Please turn your attention to the following entry.
In plain terms, ATGGTGGGGG (chemistry not fully specified) has a documented AD2 (SAGE tag count) of 9

====

Kindly state AD1 (SAGE tag count) for each of the entries shown.
System: colorectal tissue transcripts
Protocol: SAGE of normal, adenoma and cancer colorectal tissue (transcript tag counts)
Parameters: species or system human
Particulars: SAGE library AD1
Numbers only.

residue_string="CCAGGGGAGA (chemistry not fully specified)" recorded_number=24
residue_string="GTCCTGAACA (chemistry not fully specified)" recorded_number=0
residue_string="AATGAGAAGG (chemistry not fully specified)" recorded_number=0
residue_string="AAGGTAGCAG (chemistry not fully specified)" recorded_number=2
residue_string="AGCAGGAGCA (chemistry not fully specified)" recorded_number=6

// for each sequence in input: emit AD1 (SAGE tag count)
1. CCCCCGAAGC (chemistry not fully specified)
2. ATGGTGGGGG (chemistry not fully specified)

(A)
1. 3
2. 11

====

Test system: colorectal tissue transcripts
Protocol: SAGE of normal, adenoma and cancer colorectal tissue (transcript tag counts)
Set-up: species or system human
Particulars: normal colorectal tissue library 1
Lab note - cut at 30 for NC1 (SAGE tag count): fulfilled if strictly below, not fulfilled if not.

Answered examples (2):
residue_string="TGCAGCGCCT (chemistry not fully specified; the letters are possibly those of the target site)" answer_label=fulfilled
residue_string="TGCAGCACGA (chemistry not fully specified)" answer_label=fulfilled

(Q) Given TCAGAGCGCT (chemistry not fully specified) , is recorded NC1 (SAGE tag count) strictly lower than 30?
(A) fulfilled

(Q) Given TGACTAATTG (chemistry not fully specified) , is recorded NC1 (SAGE tag count) strictly lower than 30?
(A) fulfilled

(Q) Given TAAGGCCTTT (chemistry not fully specified; the letters are possibly those of the target site) , is recorded NC1 (SAGE tag count) strictly lower than 30?
(A) fulfilled

(Q) Given TTGGACCTGG (chemistry not fully specified) , is recorded NC1 (SAGE tag count) strictly lower than 30?
(A) not fulfilled

(Q) Given GTTTAGAGGG (chemistry not fully specified) , is recorded NC1 (SAGE tag count) strictly lower than 30?
(A) fulfilled

(Q) Given TGAGTGACAG (chemistry not fully specified) , is recorded NC1 (SAGE tag count) strictly lower than 30?
(A) fulfilled

(Q) Given TTTGGTTTCA (chemistry not fully specified) , is recorded NC1 (SAGE tag count) strictly lower than 30?
(A) fulfilled

====

Test system: colorectal tissue transcripts
Protocol: SAGE of normal, adenoma and cancer colorectal tissue (transcript tag counts)
Set-up: species or system human
Particulars: cancer library 1
Description: In an effort to identify potential molecular markers of early colorectal tumors, we have here analyzed gene expression in benign and malignant colorectal tumors in an unbiased and comprehensive fashion. […] The abundance of each tag provides a quantitative measure of the transcript level present within the mRNA population studied. […] For the current study, SAGE libraries derived from two samples of normal colonic epithelium, two colorectal adenomas, and two colorectal cancers were analyzed. […]
Lab note - cut at 2 for CA1 (SAGE tag count): true if strictly below, false if not.

residue_string="TTTTTACTGA (chemistry not fully specified)" answer_label=false

(Q) Given TAAGGCCTTT (chemistry not fully specified; the letters are possibly those of the target site) , is recorded CA1 (SAGE tag count) strictly lower than 2?
(A) true

(Q) Given TATGATGAGC (chemistry not fully specified) , is recorded CA1 (SAGE tag count) strictly lower than 2?
(A) true

(Q) Given TTGGGGTTTC (chemistry not fully specified) , is recorded CA1 (SAGE tag count) strictly lower than 2?
(A) false

(Q) Given TCTGAATTAT (chemistry not fully specified) , is recorded CA1 (SAGE tag count) strictly lower than 2?
(A) true

(Q) Given TAGACTAGCA (chemistry not fully specified) , is recorded CA1 (SAGE tag count) strictly lower than 2?
(A) false

(Q) Given TTGGACCTGG (chemistry not fully specified) , is recorded CA1 (SAGE tag count) strictly lower than 2?
(A) false
